Taken from patent US20110038885A1.

Test protocol: Half-life in rat in vivo
Experimental setup: read-out: T ½ rat in vivo
Bridge positions count the residues as written; N and C are the ends. Square brackets hold non-standard residues; d marks the D form. Peptide text beside a SMILES is read from it. * marks the point of attachment. Lauroyl = CCCCCCCCCCCC(=O)*; Butyryl = CCCC(=O)*
half-life values for the molecules below.
Kindly provide the numeric value in min only, without the unit symbol.

Observe how each entry below is paired with its result.
CC[C@H](C)[C@@H]1NC(=O)[C@H](Cc2c[nH]c3ccccc23)NC(=O)[C@H](CCCCN)NC(=O)[C@@H](NC(C)=O)CSSC[C@@H](C(N)=O)NC(=O)[C@H](CCC(N)=O)NC1=O [Example 55, Ac-c(Cys-Lys-Trp-Ile-Gln-Cys)-NH2] (Ac-CKWIQC-NH2; disulfide 1-6) : 18
CC[C@H](C)[C@@H]1NC(=O)[C@H](Cc2c[nH]c3ccccc23)NC(=O)[C@H](CCCCN)NC(=O)[C@@H](CCC(N)=O)NC(=O)[C@H](CCCCN)NC(=O)[C@@H]2CCCN2C(=O)[C@H](CC(=O)O)NC(=O)[C@H](CC(C)C)NC(=O)[C@@H](NC(C)=O)CSSC[C@@H](C(N)=O)NC(=O)[C@H](CCC(N)=O)NC1=O [Example 28] (Ac-CLDPK[dQ]KWIQC-NH2; disulfide 1-11) : 14
CC[C@H](C)[C@@H]1NC(=O)[C@H](Cc2c[nH]c3ccccc23)NC(=O)[C@H](CCCCN)NC(=O)[C@@H](NC(=O)[C@H](CCC(N)=O)NC(C)=O)CSSC[C@@H](C(N)=O)NC(=O)[C@H](CCC(N)=O)NC1=O [Example 54, Ac-Gln-c(Cys-Lys-Trp-Ile-Gln-Cys)-NH2] (Ac-QCKWIQC-NH2; disulfide 2-7) : 30.3
CCCCCCCCCCCC(=O)NCCCC[C@H](N)C(=O)N[C@@H](CC(=O)O)C(=O)N[C@H]1CSSC[C@@H](C(N)=O)NC(=O)[C@H](CCC(N)=O)NC(=O)[C@H]([C@@H](C)CC)NC(=O)[C@H](Cc2c[nH]c3ccccc23)NC(=O)[C@H](CCCCN)NC(=O)[C@H](CCC(N)=O)NC(=O)[C@H](CCCCN)NC(=O)[C@@H]2CCCN2C(=O)[C@H](CC(=O)O)NC(=O)[C@H](CC(C)C)NC1=O [Example 170] (H-K(Lauroyl)DCLDPKQKWIQC-NH2; disulfide 3-13) : 5
CC[C@H](C)[C@@H]1NC(=O)[C@H](Cc2c[nH]c3ccccc23)NC(=O)[C@H](CCCCN)NC(=O)[C@H](CCC(N)=O)NC(=O)[C@H](CCCCN)NC(=O)[C@@H]2CCCN2C(=O)[C@@H](NC(=O)[C@H](CC(=O)O)NC(=O)[C@H](CC(C)C)NC(C)=O)CSSC[C@@H](C(N)=O)NC(=O)[C@H](CCC(N)=O)NC1=O [Example 20] (Ac-LDCPKQKWIQC-NH2; disulfide 3-11) : 2.7

Next molecule, please.
So what's the measured half-life for this one? CCCC(=O)N[C@@H]1CSSC[C@H](C(N)=O)NC(=O)[C@@H](CCCCN)NC(=O)[C@@H](Cc2c[nH]c3ccccc23)NC(=O)[C@@H]([C@H](C)CC)NC(=O)[C@@H](CCC(N)=O)NC1=O [Example 191] (Butyryl-[dC][dQ][dI][dW][dK][dC]-NH2; disulfide 1-6)
30
